B1: Steroid hormone receptor ERR2, residues 100 to 176; numbered along this chain, O95718 (parent)
chain: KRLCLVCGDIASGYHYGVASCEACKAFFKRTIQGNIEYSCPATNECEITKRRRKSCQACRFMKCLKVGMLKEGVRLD

# Variants of: B1
# assay-procedure: abundance fitness (aPCA) (normalised: wild type 0, dead -1); higher = more abundant; growth selection in yeast, the domain comes from the species named
# run-conditions: Homo sapiens
Response key: criterion met means abundance fitness >= -0.3; criterion not met means abundance fitness < -0.3.

change: R30E
category-label: criterion met

change: I36G
category-label: criterion met

change: C4F
category-label: criterion not met

change: V18L
category-label: criterion not met

change: C24Y
category-label: criterion not met

change: S20Q
category-label: criterion met

change: K1A
category-label: criterion not met

change: E37I
category-label: criterion not met

change: R52P
category-label: criterion not met

change: G8N
category-label: criterion not met

change: K1T
category-label: criterion met
